Test system: optoTopBP1 Flp-In 293 T-REx (HEK293) cells
protocolDetails: light-induced TopBP1 condensate (nuclear foci) count, plate-normalised robust z-score vs non-control wells; higher = more TopBP1 condensates (negative = condensation inhibitor), active = hit call of the paper
assayContext: 10 µM; incubation time 2 h
Structures can show the parent of a compound that is named as a salt. The whole screen tested about 1,500 compounds, of which about 30 (2%) showed activity. What follows is part of a selection rich in actives, with near analogues and random picks from the rest.
Quick reference: light-induced TopBP1 condensate (z-score) of the listed items.
Give the value as a plain number.

Reference set, count: 5
[
  {
    "molecule": "CC[C@]12CCCN3CCc4c(n(c5ccccc45)[C@@](O)(C(=O)OC)C1)[C@@H]32",
    "valueReported": -0.735
  },
  {
    "molecule": "CCc1oc2ccccc2c1C(=O)c1ccc(O)cc1",
    "valueReported": 1.57
  },
  {
    "molecule": "O=C(CCCCC(=O)Nc1c(I)cc(I)c(C(=O)O)c1I)Nc1c(I)cc(I)c(C(=O)O)c1I [Iodipamide]",
    "valueReported": -0.465
  },
  {
    "molecule": "COc1c(O[C@@H]2O[C@H](CO)[C@@H](O)[C@H](O)[C@H]2O)cc2c(c1OC)-c1ccc(SC)c(=O)cc1[C@@H](NC(C)=O)CC2 [Thiocolchicoside]",
    "valueReported": -0.423
  },
  {
    "molecule": "C=C(NC(=O)C(=C)NC(=O)c1csc(C2=N[C@@H]3c4csc(n4)[C@H]4NC(=O)c5csc(n5)[C@H]([C@](C)(O)[C@@H](C)O)NC(=O)[C@H]5CSC(=N5)/C(=C/C)NC(=O)[C@H]([C@@H](C)O)NC(=O)c5csc(n5)[C@]3(CC2)NC(=O)[C@H](C)NC(=O)C(=C)NC(=O)[C@H](C)NC(=O)[C@H]([C@@H](C)CC)N[C@@H]2C=Cc3c([C@H](C)O)cc(nc3[C@H]2O)C(=O)O[C@@H]4C)n1)C(N)=O",
    "valueReported": -3.34
  }
]

Query string: For the molecule C[C@@H](CN1CC(=O)NC(=O)C1)N1CC(=O)NC(=O)C1 [Dexrazoxane hydrochloride] , give its reported light-induced TopBP1 condensate (z-score).
Result string: -0.035

Query string: For the molecule Cn1c(=O)c2c(ncn2CCO)n(C)c1=O , give its reported light-induced TopBP1 condensate (z-score).
Result string: 0.502

Query string: For the molecule CCCC(=O)N1CCCN(c2nc(N)c3cc(OC)c(OC)cc3n2)CC1 [Bunazosin hydrochloride] , give its reported light-induced TopBP1 condensate (z-score).
Result string: 0.537

Query string: For the molecule COCC(=O)O[C@]1(CCN(C)CCCc2nc3ccccc3[nH]2)CCc2cc(F)ccc2[C@@H]1C(C)C , give its reported light-induced TopBP1 condensate (z-score).
Result string: -2.07

###

Tested on: optoTopBP1 Flp-In 293 T-REx (HEK293) cells
protocolDetails: light-induced TopBP1 condensate (nuclear foci) count, plate-normalised robust z-score vs non-control wells; higher = more TopBP1 condensates (negative = condensation inhibitor), active = hit call of the paper
assayContext: 10 µM; incubation time 2 h
Counter-ions that a name gives are not always drawn. Among all 1,500 compounds or so, about 30 (2%) showed activity. For the sample, actives were picked, then their nearest neighbours and some compounds at random.
Labels assigned by light-induced TopBP1 condensate (z-score) range: low group (below -0.2), middle group (-0.2 to below 0.5), high group (0.5 or more)

[
  {
    "compound": "CN1CCC(=C2c3ccccc3Sc3ccccc32)CC1 [Pimethixene maleate]",
    "testTarget": "optoTopBP1 Flp-In 293 T-REx (HEK293) cells",
    "discreteLabel": "low group"
  },
  {
    "compound": "CC1=C(C)C(=O)C(C(CCCCCC(=O)O)c2ccccc2)=C(C)C1=O (stereo unspecified)",
    "testTarget": "optoTopBP1 Flp-In 293 T-REx (HEK293) cells",
    "discreteLabel": "low group"
  },
  {
    "compound": "OCCOCCN1CCN(C2=Nc3ccccc3Sc3ccccc32)CC1 [Quetiapine hemifumarate]",
    "testTarget": "optoTopBP1 Flp-In 293 T-REx (HEK293) cells",
    "discreteLabel": "middle group"
  }
]

Query string: Please let me know in which category the item CO[C@H]1/C=C/O[C@@]2(C)Oc3c(C)c(O)c4c(c3C2=O)C2=NC3(CCN(CC(C)C)CC3)NC2=C(NC(=O)/C(C)=C\C=C\[C@H](C)[C@H](O)[C@@H](C)[C@@H](O)[C@@H](C)[C@H](OC(C)=O)[C@@H]1C)C4=O belongs.
Result string: middle group

Query string: Please let me know in which category the item CNC(=O)c1c(I)c(C(=O)NCC(=O)Nc2c(I)c(C(=O)O)c(I)c(C(=O)NCCO)c2I)c(I)c(N(C)C(C)=O)c1I belongs.
Result string: high group

Query string: Please let me know in which category the item OC(c1cc(C(F)(F)F)nc2c(C(F)(F)F)cccc12)C1CCCCN1 (stereo unspecified) [Mefloquine hydrochloride] belongs.
Result string: low group

Query string: Please let me know in which category the item Cc1nccn1CC1CCc2c(c3ccccc3n2C)C1=O (stereo unspecified) [Ondansetron Hydrochloride] belongs.
Result string: high group

Query string: Please let me know in which category the item CCOc1ccc2c(c1)C(C)=CC(C)(C)N2 belongs.
Result string: high group

Query string: Please let me know in which category the item CCCCC1=NC2(CCCC2)C(=O)N1Cc1ccc(-c2ccccc2-c2nnn[nH]2)cc1 belongs.
Result string: low group

Query string: Please let me know in which category the item N#Cc1cc(NC(=O)C(=O)O)c(Cl)c(NC(=O)C(=O)O)c1 [Lodoxamide] belongs.
Result string: high group

Query string: Please let me know in which category the item NC(=O)c1cc[n+](CC2=C(C(=O)[O-])N3C(=O)[C@@H](NC(=O)[C@@H](c4ccccc4)S(=O)(=O)O)[C@H]3SC2)cc1 [Cefsulodin sodium salt] belongs.
Result string: middle group
